EXPERIMENT NOTES: HPLC stability study in phosphate buffers
Type: physicochemical
PARTICULARS: phosphate buffer; pH 9.0; study over 7 h
METRIC NAME: remaining at 7 h, 14.6 µg/mL (%)
Answer format: numeric, % implied, no suffix.

Challenge: # remaining at 7 h, 14.6 µg/mL lookup, item COc1ccc(/C=C\c2cc(OC)c(OC)c(OC)c2)cc1O [CA-4, Combretastatin A-4, reference compound]
Response given: 90

----------
EXPERIMENT NOTES: HPLC stability study in phosphate buffers
Type: physicochemical
PARTICULARS: phosphate buffer; pH 4.0; study over 264 h
METRIC NAME: remaining at 264 h, 14.6 µg/mL (%)
All answers are understood in %, so give the number only.

Challenge: # query: remaining at 264 h, 14.6 µg/mL of entry C=CCC1C(=O)N(c2cc(OC)c(OC)c(OC)c2)C1c1ccc(OC)cc1 (stereo not shown) [10h]
Response given: 28

Challenge: And the next one, C=CCC1C(=O)N(c2cc(OC)c(OC)c(OC)c2)C1c1ccc(OC)c(O)c1 (stereo not shown) [10p] ?
Response given: 98

Challenge: Same read-out for C=CCC1C(=O)N(c2cc(OC)c(OC)c(OC)c2)C1c1ccc(OC)c([N+](=O)[O-])c1 (stereo not shown) [10q] ?
Response given: 26

Challenge: Likewise for C=CCC1C(=O)N(c2cc(OC)c(OC)c(OC)c2)C1c1ccc(OC)c(N)c1 (stereo not shown) [10r] ?
Response given: 96
